target: Tubulin (Sus scrofa, UniProt P02554+P02550); assay: Inhibition of tubulin polymerization in porcine brain
recorded.endpoint: IC50 (µM)

A = CC(C)c1cccc(C(C)C)c1N1C(=O)c2c(F)ccc(F)c2C1=O
B = CC(C)c1cccc(C(C)C)c1N1C(=O)c2c(F)c(F)c(F)c(F)c2C1=O
Which value of IC50 is smaller, the one for A or the one for B ? Refer to your chosen item by its label in the answer.
A

I = CC(C)c1cccc(C(C)C)c1N1C(=O)c2ccc(O)cc2C1=O
II = CC(C)c1cccc(C(C)C)c1N1C(=O)c2cccc(F)c2C1=O
Which value of IC50 is smaller, the one for I or the one for II ? Refer to your chosen item by its label in the answer.
I
(I: 6.9 µM, II: 17 µM)
